- Test system: SR
- run-description: Growth inhibition of human SR cells assessed as cell growth at 10 uM incubated for 48 hrs by sulforhodamine B assay relative to control
- Type: functional
- condition-details: read-out: Activity
experimental-endpoint: growth at 10 µM (%)
Return type: number; implicit unit %.

Answered examples (5):
[[record]]
cpd_smiles = "Cc1oc2ncnc(Nc3cccc(F)c3)c2c1C(=O)O"
test_target = "SR"
value = 104

[[record]]
cpd_smiles = "Cc1oc2ncnc(Nc3ccccc3)c2c1C(=O)NCCO"
test_target = "SR"
value = 52.2

[[record]]
cpd_smiles = "Cc1cccc(Nc2ncnc3oc(C)c(C(=O)NCCN4CCOCC4)c23)c1"
test_target = "SR"
value = 126

[[record]]
cpd_smiles = "CCOC(=O)c1c(C)oc2ncnc(Nc3ccc(OCc4cccc(C)c4)cc3)c12"
test_target = "SR"
value = 116

[[record]]
cpd_smiles = "Cc1oc2ncnc(Nc3cccc(Cl)c3)c2c1CO"
test_target = "SR"
value = 62.2


Data request, read-out growth at 10 µM, for Cc1oc2ncnc(Nc3ccc(OCc4cccc(F)c4)c(Cl)c3)c2c1C(=O)NCCO
99.7

Now give it for CCOC(=O)c1c(C)oc2ncnc(Nc3ccc(OCc4ccc(Cl)c(Cl)c4)cc3)c12 too.
90

###

- Tested on: EKVX
- run-description: Growth inhibition of human EKVX cells assessed as cell growth at 10 uM incubated for 48 hrs by sulforhodamine B assay relative to control
- Assay type: functional
- condition-details: read-out: Activity
Below, each entry is listed alongside its reported growth at 10 µM.
Return type: number; implicit unit %.

Answered examples (5):
[[record]]
cpd_smiles = "CCOC(=O)c1c(C)oc2ncnc(Nc3ccc(OCc4ccc(Cl)cc4)cc3)c12"
value = 102

[[record]]
cpd_smiles = "CCOC(=O)c1c(C)oc2ncnc(Nc3ccc(OCc4cccc(F)c4)cc3)c12"
value = 94.4

[[record]]
cpd_smiles = "Cc1oc2ncnc(Nc3ccc(OCc4cccc(F)c4)c(Cl)c3)c2c1C(=O)NCCO"
value = 47.8

[[record]]
cpd_smiles = "Cc1cccc(Nc2ncnc3oc(C)c(C(=O)NCCO)c23)c1"
value = 91.8

[[record]]
cpd_smiles = "CCOC(=O)c1c(C)oc2ncnc(Nc3ccc(OCc4ccc(Cl)c(Cl)c4)cc3)c12"
value = 102


Data request, read-out growth at 10 µM, for Cc1cccc(Nc2ncnc3oc(C)c(C(=O)NCCN4CCOCC4)c23)c1
92.6

Now give it for CCOC(=O)c1c(C)oc2ncnc(Nc3cccc(F)c3)c12 too.
101

Now give it for Cc1oc2ncnc(Nc3cccc(F)c3)c2c1C(=O)O too.
101

Now give it for CCCNC(=O)c1c(C)oc2ncnc(Nc3cccc(Cl)c3)c12 too.
98.8

Now give it for CCOC(=O)c1c(C)oc2ncnc(Nc3ccc(OCc4cccc(C)c4)cc3)c12 too.
94.5

###

- Test system: HL-60(TB)
- run-description: Growth inhibition of human HL-60(TB) cells assessed as cell growth at 10 uM incubated for 48 hrs by sulforhodamine B assay relative to control
- Format: functional
- condition-details: HL-60, 48 h, read-out: Activity
// assign Yes if growth at 10 µM falls strictly below 90%, else No (ties count as No)

Here's what some known entries look like.
[[record]]
cpd_smiles = "Cc1oc2ncnc(Nc3cccc(F)c3)c2c1C(=O)O"
qualitative_label = "Yes"

[[record]]
cpd_smiles = "Cc1cccc(Nc2ncnc3oc(C)c(C(=O)NCCO)c23)c1"
qualitative_label = "Yes"

[[record]]
cpd_smiles = "CCOC(=O)c1c(C)oc2ncnc(Nc3ccc(F)c(Cl)c3)c12"
qualitative_label = "No"

[[record]]
cpd_smiles = "Cc1oc2ncnc(Nc3ccccc3)c2c1C(=O)NCCO"
qualitative_label = "Yes"

[[record]]
cpd_smiles = "CCCNC(=O)c1c(C)oc2ncnc(Nc3cccc(Cl)c3)c12"
qualitative_label = "No"

[[record]]
cpd_smiles = "CCOC(=O)c1c(C)oc2ncnc(Nc3ccc(OCc4ccc(Cl)c(Cl)c4)cc3)c12"
qualitative_label = "No"

[[record]]
cpd_smiles = "CCOC(=O)c1c(C)oc2ncnc(Nc3ccc(OCc4cccc(C)c4)cc3)c12"
qualitative_label = "No"

[[record]]
cpd_smiles = "Cc1oc2ncnc(Nc3cccc(Cl)c3)c2c1CO"
qualitative_label = "Yes"

[[record]]
cpd_smiles = "Cc1oc2ncnc(Nc3ccc(OCc4cccc(F)c4)c(Cl)c3)c2c1C(=O)NCCO"
qualitative_label = "Yes"

[[record]]
cpd_smiles = "CCOC(=O)c1c(C)oc2ncnc(Nc3ccc(OCc4cccc(F)c4)cc3)c12"
qualitative_label = "No"


Turning now to a further record.
Hello, I'm reviewing records and need to know if growth at 10 µM of CCOC(=O)c1c(C)oc2ncnc(Nc3cccc(F)c3)c12 is below 90%. Could you check?
Yes
